experiment: PK in healthy rats, s.c.; assay type: in vivo, male Sprague-Dawley rats; details: male, Sprague-Dawley, rat, plasma, sc; 100 mg/kg s.c.
parameter: half-life (min)
Give the quantity in min, number only.

Fill in the blank: the reported half-life of O=P(O)(O)O[C@H]1[C@H](OP(=O)(O)O)[C@@H](OP(=O)(O)O)[C@H](OP(=O)(O)O)[C@@H](OP(=O)(O)O)[C@H]1OP(=O)(O)O [IP6, myo-Inositol hexakisphosphate] is ____. 29

* * *

assay: VSMC viability (MTS) in CPP2-supplemented medium; assay type: cell-based, human; conditions: human, primary human VSMCs, 3 µM with CPP2; read-out: VSMC viability (MTS), % of medium control
parameter: viability at 48 h, 3 µM (%)
Form entry: value (%) — number only.

// returns reported viability at 48 h, 3 µM for input O=P(O)(O)O[C@H]1[C@H](OP(=O)(O)O)[C@@H](OP(=O)(O)O)[C@H](OP(=O)(O)O)[C@@H](OP(=O)(O)O)[C@H]1OP(=O)(O)O [IP6, myo-Inositol hexakisphosphate] 106

* * *

test: PK i.v. bolus in healthy and adenine/high-phosphate-diet (uremic) rats; format: in vivo, male Sprague-Dawley rats; settings: male, Sprague-Dawley, rat, serum, iv, 10 mg/kg, 10 mg/kg i.v. bolus, Healthy; read-out: AUC0-240 (converted)
parameter: AUC(0-t) (µM·h)
Write the answer as a number in µM·h, unit excluded.

Please give the measured AUC(0-t) for this compound: COCCOCCO[C@@H]1[C@@H](OP(=O)(O)O)[C@H](OCCOCCOC)[C@@H](OP(=O)(O)O)[C@@H](OP(=O)(O)O)[C@H]1OP(=O)(O)O 17.8

* * *

assay: PK s.c. in healthy and adenine/high-phosphate-diet (uremic) rats; type: in vivo; conditions: male, Sprague-Dawley, rat, plasma, sc, 10 mg/kg, Healthy, s.c., Time 3 h, individual rats; read-out: plasma concentration (Figure 4h)
parameter: concentration at 3 h
Write the quantity with the unit trailing the number.

Item under review: COCCOCCO[C@@H]1[C@@H](OP(=O)(O)O)[C@H](OCCOCCOC)[C@@H](OP(=O)(O)O)[C@@H](OP(=O)(O)O)[C@H]1OP(=O)(O)O . Reported concentration at 3 h? 2570 nM

* * *

system: transformation of CPP1 to CPP2 in pooled human serum; assay: In vitro serum calcification propensity (T50) screening assay; type: biochemical; settings: mean of n experiments
Give measured concentration upon which a T50 of 350 min is reached (c350), mean for each item. Keep answers brief.
Use µM as the unit, but write only the number.

Name the reported concentration upon which a T50 of 350 min is reached (c350), mean value associated with the compound O=P(O)(O)OP(=O)(O)O [PPi, sodium pyrophosphate] 27.4

What about COCCOCCO[C@@H]1[C@@H](OP(=O)(O)O)[C@H](OCCOCCOC)[C@@H](OP(=O)(O)O)[C@@H](OP(=O)(O)O)[C@H]1OP(=O)(O)O ? 4.9

COCCOCCOCCOCCOCCOCCOCCO[C@@H]1[C@@H](OP(=O)(O)O)[C@H](OCCOCCOCCOCCOCCOCCOCCOC)[C@@H](OP(=O)(O)O)[C@@H](OP(=O)(O)O)[C@H]1OP(=O)(O)O , same question. 4.5

* * *

assay: PK i.v. bolus in healthy and adenine/high-phosphate-diet (uremic) rats; format: in vivo, male Sprague-Dawley rats; settings: male, Sprague-Dawley, rat, plasma, iv, 10 mg/kg, Uremic, i.v., Time 0.5 h, individual rats; read-out: plasma concentration (Figure 4g)
parameter: concentration at 0.5 h

Please look up its concentration at 0.5 h: COCCOCCO[C@@H]1[C@@H](OP(=O)(O)O)[C@H](OCCOCCOC)[C@@H](OP(=O)(O)O)[C@@H](OP(=O)(O)O)[C@H]1OP(=O)(O)O 19 µM
